// data source = the Immune Epitope Database (IEDB)

Each entry below lists one item and its recorded pKd value.
- TARGET: HLA-B*40:01
- ASSAY EXPLANATION: IEDB peptide-MHC binding, purified MHC/competitive/radioactivity; filed as Kd, often an IC50 or EC50 that approximates it; bounds were set here for any values at or beyond the usual limits of such assays
- CONDITION NOTES: source organism: Mammarenavirus machupoense
pKd: −log10 of the molar value.

{"RESIDUES": "PDIGELFGL", "pKd": 4.90}
{"RESIDUES": "TEFQSVTFTM", "pKd": 5.80}

----------
- TARGET: HLA-A*26:03
- ASSAY EXPLANATION: IEDB peptide-MHC binding, purified MHC/competitive/fluorescence; filed as Kd, often an IC50 or EC50 that approximates it; bounds were set here for any values at or beyond the usual limits of such assays
- CONDITION NOTES: source organism: Homo sapiens
pKd: −log10 of the molar value.

{"RESIDUES": "FRHSVVVPY", "pKd": "≤ 4.70"}
